target: FGFR1 (Homo sapiens (Human))
Sequence (P11362 22-822): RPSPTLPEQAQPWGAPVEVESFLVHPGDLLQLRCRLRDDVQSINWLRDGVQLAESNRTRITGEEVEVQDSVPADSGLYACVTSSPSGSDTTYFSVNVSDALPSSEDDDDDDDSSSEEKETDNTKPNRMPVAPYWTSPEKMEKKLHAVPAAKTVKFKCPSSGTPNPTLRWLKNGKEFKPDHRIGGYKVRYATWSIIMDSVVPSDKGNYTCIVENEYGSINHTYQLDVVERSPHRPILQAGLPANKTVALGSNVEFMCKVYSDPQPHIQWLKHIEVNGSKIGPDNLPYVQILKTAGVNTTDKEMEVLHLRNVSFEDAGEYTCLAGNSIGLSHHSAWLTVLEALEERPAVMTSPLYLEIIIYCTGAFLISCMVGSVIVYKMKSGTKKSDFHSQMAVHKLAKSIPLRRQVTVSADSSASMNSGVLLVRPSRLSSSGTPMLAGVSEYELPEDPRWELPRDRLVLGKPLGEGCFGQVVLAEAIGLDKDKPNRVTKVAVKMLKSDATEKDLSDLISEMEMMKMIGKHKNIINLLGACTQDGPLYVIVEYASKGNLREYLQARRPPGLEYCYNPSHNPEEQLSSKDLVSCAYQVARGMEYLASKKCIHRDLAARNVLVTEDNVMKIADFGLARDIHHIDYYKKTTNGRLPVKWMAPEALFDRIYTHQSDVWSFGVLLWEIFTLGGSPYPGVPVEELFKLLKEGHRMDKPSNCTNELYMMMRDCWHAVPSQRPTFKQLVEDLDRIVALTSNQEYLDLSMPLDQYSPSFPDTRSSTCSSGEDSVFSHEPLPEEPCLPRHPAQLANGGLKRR
assayText: Kinase assay, binding constants (Kd), kinase-tagged T7 phage, qPCR
Examples of molecules with documented Kd follow.

| compound | Kd |
| --- | --- |
| COc1cc2[nH]nc(-c3cnc(N4CC[C@@H]4C)c(F)c3)c2cc1O[C@H](C)c1c(Cl)cncc1Cl | 20 to 100 nM |
| Cc1cnnc(C)c1[C@@H](C)Oc1ccc2[nH]nc(-c3ccc(N4CC5(CCOC5)C4)nc3)c2c1 | 1 to 20 nM |
| CCOC(=O)N1CCC2(CC1)CN(c1ccc(-c3n[nH]c4ccc(O[C@H](C)c5c(Cl)cncc5Cl)cc34)cn1)C2 | 20 to 100 nM |
| C[C@@H](Oc1ccc2[nH]nc(-c3ccc(N4CCN(C(N)=O)CC4)nc3)c2c1)c1c(Cl)cncc1Cl | 1 to 20 nM |
| CCN1CC[C@@H](n2cc(-c3n[nH]c4ccc(O[C@H](C)c5c(Cl)cncc5Cl)cc34)cn2)C1 | 1 to 20 nM |
| COC1(C)CN(c2ccc(-c3n[nH]c4ccc(O[C@H](C)c5c(Cl)cnc(C)c5Cl)cc34)cn2)C1 | 20 to 100 nM |
| COc1cc2[nH]nc(-c3ccc(N4CC5(C4)CN(S(C)(=O)=O)C5)nc3)c2cc1O[C@H](C)c1c(C)cnnc1C | 1 to 20 nM |

====

target: FGFR3-BAIAP2L1 Ba/F3 cells (Homo sapiens, UniProt P22607)
Sequence (P22607 23-806 limits assumed, change not shown): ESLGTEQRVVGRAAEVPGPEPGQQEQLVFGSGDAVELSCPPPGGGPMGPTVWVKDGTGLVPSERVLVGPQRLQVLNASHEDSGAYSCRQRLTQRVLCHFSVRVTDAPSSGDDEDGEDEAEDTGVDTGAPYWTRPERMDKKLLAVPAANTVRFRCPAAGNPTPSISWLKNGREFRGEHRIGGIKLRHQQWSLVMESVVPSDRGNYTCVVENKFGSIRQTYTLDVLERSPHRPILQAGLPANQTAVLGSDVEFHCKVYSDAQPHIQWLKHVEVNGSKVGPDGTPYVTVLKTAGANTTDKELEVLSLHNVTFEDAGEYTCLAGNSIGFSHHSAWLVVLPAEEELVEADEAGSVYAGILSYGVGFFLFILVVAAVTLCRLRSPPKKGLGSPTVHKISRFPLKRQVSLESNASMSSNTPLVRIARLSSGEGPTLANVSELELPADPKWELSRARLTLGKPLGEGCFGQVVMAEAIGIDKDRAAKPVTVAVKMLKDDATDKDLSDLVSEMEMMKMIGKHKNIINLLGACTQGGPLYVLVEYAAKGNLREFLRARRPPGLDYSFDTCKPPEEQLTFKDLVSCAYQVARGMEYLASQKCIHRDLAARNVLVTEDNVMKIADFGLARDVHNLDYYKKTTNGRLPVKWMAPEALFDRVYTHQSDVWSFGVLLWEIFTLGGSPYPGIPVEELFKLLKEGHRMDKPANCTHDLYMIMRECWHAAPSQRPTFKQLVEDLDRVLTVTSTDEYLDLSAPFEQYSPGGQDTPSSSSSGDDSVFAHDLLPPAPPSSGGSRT
assayText: Ba/F3 cell viability assay (CellTiter-Glo 2.0), FGFR3-BAIAP2L1 Ba/F3
Type: cell-based
conditions: read-out: Ba/F3 Cells FGFR3 (IC50 nM); FGFR3-BAIAP2L1 Ba/F3 cells, 48 hours, Cell Titer Glo 2.0
measuredMetric: IC50

| compound | experimentalResult |
| --- | --- |
| C[C@@H](Oc1ccc2[nH]nc(-c3ccc(N4CCC5(CCOC5)CC4)nc3)c2c1)c1c(Cl)cncc1Cl [Example 28] | 1 to 20 nM |
| C[C@@H](Oc1ccc2[nH]nc(-c3cnc(N4CCC5(CCNC5=O)CC4)nc3)c2c1)c1c(Cl)cncc1Cl [Example 55] | 20 to 100 nM |
| C[C@@H](Oc1ccc2[nH]nc(-c3cnc(N4CCC5(CCC(=O)N5)CC4)nc3)c2c1)c1c(Cl)cncc1Cl [Example 48] | 20 to 100 nM |
| C[C@@H](Oc1ccc2[nH]nc(-c3ccc(N4CCC5(CCCO5)CC4)nc3)c2c1)c1c(Cl)cncc1Cl [Example 26] | 20 to 100 nM |

====

target: FGFR2 (Homo sapiens (Human))
Sequence (P21802 22-821): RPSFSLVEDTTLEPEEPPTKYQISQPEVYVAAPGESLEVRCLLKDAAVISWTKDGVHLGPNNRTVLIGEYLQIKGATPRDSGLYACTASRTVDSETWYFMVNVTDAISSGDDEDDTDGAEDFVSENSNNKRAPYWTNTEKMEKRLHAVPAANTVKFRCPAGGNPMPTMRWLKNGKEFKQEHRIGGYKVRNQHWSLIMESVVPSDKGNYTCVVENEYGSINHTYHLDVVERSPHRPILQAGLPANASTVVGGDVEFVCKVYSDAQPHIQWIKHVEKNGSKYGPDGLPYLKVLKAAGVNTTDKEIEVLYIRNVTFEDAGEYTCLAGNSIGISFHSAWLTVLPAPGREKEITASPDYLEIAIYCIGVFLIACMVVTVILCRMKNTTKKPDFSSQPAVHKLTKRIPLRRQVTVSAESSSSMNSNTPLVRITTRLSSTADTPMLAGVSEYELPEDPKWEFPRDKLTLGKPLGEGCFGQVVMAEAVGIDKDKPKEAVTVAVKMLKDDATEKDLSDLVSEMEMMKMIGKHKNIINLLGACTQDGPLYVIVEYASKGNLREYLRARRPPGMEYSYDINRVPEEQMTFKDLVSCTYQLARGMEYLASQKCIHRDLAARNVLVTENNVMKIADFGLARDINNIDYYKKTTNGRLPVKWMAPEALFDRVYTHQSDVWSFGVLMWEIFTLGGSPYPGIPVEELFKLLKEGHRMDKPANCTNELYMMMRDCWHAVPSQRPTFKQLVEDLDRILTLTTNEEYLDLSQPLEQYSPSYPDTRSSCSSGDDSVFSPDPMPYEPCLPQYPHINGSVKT
assayText: Kinase assay, binding constants (Kd), kinase-tagged T7 phage, qPCR
Reported Kd values for the following molecules.
measuredMetric: Kd

| compound | experimentalResult |
| --- | --- |
| Cc1cnnc(C)c1[C@@H](C)Oc1ccc2[nH]nc(-c3ccc(N4CC5(CCCN(C(=O)OC(C)C)C5)C4)nc3)c2c1 | 1 to 20 nM |
| CC(C)S(=O)(=O)N1CC2(CN(c3ncc(-c4n[nH]c5ccc(O[C@H](C)c6c(Cl)cncc6Cl)cc45)cn3)C2)C1 | 20 to 100 nM |
| COc1cc2[nH]nc(-c3ccc(N4CCCC4)nc3)c2cc1O[C@H](C)c1c(C)cnnc1C | 1 to 20 nM |
| C[C@@H](Oc1ccc2[nH]nc(-c3ccc(N4CCC5(CC4)CN(C)CC(=O)N5)nc3)c2c1)c1c(Cl)cncc1Cl | 1 to 20 nM |
| COc1cc2[nH]nc(-c3cnc(N4CC5(C4)CN(S(C)(=O)=O)C5)nc3)c2cc1O[C@H](C)c1c(Cl)cnc(C)c1Cl | 1 to 20 nM |
| C[C@@H](Oc1ccc2[nH]nc(-c3cnc(N4CCC5(CCC(=O)N5C)CC4)nc3)c2c1)c1c(Cl)cncc1Cl | 1 to 20 nM |
| Cc1ncc(Cl)c([C@@H](C)Oc2ccc3[nH]nc(-c4ccc(N5CC6(CCCO6)C5)nc4)c3c2)c1Cl | 20 to 100 nM |
